Target: cGMP-specific 3',5'-cyclic phosphodiesterase (Homo sapiens, UniProt O76074)
Test: Inhibition of human recombinant PDE5 after 1.5 hrs by fluorescent polarization assay
pIC50: −log10 of the molar value.
READOUT_KIND: pIC50

COMPOUND: CCN1C(=O)[C@H]2Cc3c([nH]c4ccccc34)[C@H](c3ccccc3Br)N2C1=O
NUMERIC_READOUT: 5.40

A = O=C1[C@@H]2Cc3c([nH]c4ccccc34)[C@@H](c3ccccc3Br)N2C(=O)CN1Cc1ccccc1
B = COC(=O)[C@H]1Cc2c([nH]c3ccccc23)[C@@H](c2ccccc2Br)N1
C = CCN1C(=O)[C@H]2Cc3c([nH]c4ccccc34)[C@@H](c3ccccc3Br)N2C1=O
D = COC(=O)[C@H]1Cc2c([nH]c3ccccc23)[C@@H](c2ccccc2Br)N1C(=O)CCl
IN: Given 4 molecules, produce a descending ranking by pIC50. List labels; respect the requested ordering.
OUT: A, C, B, D
